TARGET_SYSTEM: TAOK2 (human) (UniProt Q9UL54)
Sequence (Q9UL54 whole entry, looked up): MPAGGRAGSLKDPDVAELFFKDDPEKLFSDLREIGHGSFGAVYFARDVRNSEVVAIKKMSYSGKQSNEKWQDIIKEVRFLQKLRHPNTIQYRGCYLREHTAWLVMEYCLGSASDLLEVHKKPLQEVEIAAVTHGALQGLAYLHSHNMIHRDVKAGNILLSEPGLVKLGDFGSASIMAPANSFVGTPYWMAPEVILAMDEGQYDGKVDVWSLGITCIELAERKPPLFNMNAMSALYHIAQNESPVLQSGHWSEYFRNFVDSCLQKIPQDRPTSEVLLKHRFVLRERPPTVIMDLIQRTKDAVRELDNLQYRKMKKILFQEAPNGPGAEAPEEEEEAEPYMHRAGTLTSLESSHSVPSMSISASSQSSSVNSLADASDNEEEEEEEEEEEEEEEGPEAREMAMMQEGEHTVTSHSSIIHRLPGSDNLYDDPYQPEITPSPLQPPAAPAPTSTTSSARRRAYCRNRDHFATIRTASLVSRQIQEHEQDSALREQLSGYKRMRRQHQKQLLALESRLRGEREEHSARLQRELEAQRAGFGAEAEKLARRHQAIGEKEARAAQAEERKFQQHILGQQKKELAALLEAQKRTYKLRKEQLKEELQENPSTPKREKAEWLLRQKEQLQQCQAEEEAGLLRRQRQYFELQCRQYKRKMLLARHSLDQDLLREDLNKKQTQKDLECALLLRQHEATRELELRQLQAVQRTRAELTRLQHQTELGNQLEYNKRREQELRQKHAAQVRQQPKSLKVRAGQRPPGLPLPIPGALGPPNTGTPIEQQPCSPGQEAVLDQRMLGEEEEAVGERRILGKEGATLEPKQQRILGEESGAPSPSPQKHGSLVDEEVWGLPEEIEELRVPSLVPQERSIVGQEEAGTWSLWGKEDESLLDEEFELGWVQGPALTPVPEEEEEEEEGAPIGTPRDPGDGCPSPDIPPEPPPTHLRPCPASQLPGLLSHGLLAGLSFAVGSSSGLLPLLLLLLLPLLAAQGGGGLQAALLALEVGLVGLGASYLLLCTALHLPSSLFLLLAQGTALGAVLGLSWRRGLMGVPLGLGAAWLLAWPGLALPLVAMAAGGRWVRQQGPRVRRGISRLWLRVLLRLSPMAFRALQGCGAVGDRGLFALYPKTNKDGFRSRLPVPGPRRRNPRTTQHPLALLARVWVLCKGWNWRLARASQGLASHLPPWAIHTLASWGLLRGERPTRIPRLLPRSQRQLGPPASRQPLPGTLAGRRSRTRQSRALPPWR
EXPERIMENT_SUMMARY: radiometric filter-binding kinase assay, Kinase HotSpot
SETTINGS: compound 0.5 µM; ATP 10 µM
ENDPOINT: residual activity (%)

>>> print(df.to_string())
                                smiles_code  number
0  O=C(O)c1ccc2c3c1cccc3c(=O)n1c3ccccc3nc21    95.2
1  c1ccc(-c2cnc(Nc3ccc(OCCN4CCCC4)cc3)s2)cc1    70.7
2                   Nc1ncnc2c1cnn2-c1ccccc1      93

----------
TARGET_SYSTEM: JAK1 JH1 catalytic (human) (UniProt P23458)
Sequence (P23458 whole entry, looked up): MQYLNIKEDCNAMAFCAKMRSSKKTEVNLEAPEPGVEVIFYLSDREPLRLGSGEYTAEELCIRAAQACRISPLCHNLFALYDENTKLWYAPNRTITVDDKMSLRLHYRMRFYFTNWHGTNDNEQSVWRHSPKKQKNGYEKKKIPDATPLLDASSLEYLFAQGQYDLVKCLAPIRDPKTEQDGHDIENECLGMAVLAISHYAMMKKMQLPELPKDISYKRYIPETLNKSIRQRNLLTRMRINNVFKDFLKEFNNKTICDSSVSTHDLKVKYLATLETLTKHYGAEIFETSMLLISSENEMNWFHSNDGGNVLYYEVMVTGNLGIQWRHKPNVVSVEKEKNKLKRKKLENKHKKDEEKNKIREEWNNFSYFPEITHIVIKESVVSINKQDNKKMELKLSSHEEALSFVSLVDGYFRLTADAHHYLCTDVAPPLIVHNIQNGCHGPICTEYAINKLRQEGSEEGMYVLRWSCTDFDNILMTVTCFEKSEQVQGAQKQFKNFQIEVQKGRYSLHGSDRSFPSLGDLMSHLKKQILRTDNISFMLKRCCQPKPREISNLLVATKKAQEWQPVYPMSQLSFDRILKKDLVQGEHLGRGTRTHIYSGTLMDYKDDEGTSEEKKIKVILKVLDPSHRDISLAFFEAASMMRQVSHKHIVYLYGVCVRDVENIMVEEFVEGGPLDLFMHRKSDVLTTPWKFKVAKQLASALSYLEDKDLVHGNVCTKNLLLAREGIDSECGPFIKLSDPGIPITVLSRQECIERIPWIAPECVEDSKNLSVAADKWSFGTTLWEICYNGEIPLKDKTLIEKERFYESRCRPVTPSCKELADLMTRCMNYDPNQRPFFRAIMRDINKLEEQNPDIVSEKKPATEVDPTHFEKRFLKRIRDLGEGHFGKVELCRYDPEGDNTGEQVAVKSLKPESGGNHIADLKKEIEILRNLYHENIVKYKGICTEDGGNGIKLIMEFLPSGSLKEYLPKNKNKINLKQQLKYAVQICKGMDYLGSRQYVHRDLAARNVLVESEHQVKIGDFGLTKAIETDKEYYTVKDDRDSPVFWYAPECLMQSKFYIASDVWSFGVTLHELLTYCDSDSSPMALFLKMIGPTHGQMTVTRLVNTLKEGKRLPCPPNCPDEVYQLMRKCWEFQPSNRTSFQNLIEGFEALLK
EXPERIMENT_SUMMARY: radiometric filter-binding kinase assay, Kinase HotSpot
SETTINGS: compound 0.5 µM; ATP 10 µM
// reported residual activity per item
ENDPOINT: residual activity (%)

                                smiles_code                             target_system  unit_of_measurement  number
0  O=c1c2ccccc2[nH]c(=S)n1CCN1CCC(=C(c2ccc(F)cc2)c2ccc(F)cc2)CC1  JAK1 JH1 catalytic (human) (UniProt P23458)                    %     105
1  O=S(=O)(NCCNC/C=C/c1ccc(Br)cc1)c1cccc2cnccc12  JAK1 JH1 catalytic (human) (UniProt P23458)                    %    87.3
2  O=C1NC(=O)c2c1c1c3ccccc3[nH]c1c1[nH]c3cc(Br)ccc3c21  JAK1 JH1 catalytic (human) (UniProt P23458)                    %     110
3  Cn1cc(/C=C2\C(=O)Nc3ccc(S(N)(=O)=O)cc32)c2ccccc21  JAK1 JH1 catalytic (human) (UniProt P23458)                    %    83.9
